Molecular target: DNA topoisomerase 1 (Homo sapiens) (UniProt P11387)
Sequence (whole entry): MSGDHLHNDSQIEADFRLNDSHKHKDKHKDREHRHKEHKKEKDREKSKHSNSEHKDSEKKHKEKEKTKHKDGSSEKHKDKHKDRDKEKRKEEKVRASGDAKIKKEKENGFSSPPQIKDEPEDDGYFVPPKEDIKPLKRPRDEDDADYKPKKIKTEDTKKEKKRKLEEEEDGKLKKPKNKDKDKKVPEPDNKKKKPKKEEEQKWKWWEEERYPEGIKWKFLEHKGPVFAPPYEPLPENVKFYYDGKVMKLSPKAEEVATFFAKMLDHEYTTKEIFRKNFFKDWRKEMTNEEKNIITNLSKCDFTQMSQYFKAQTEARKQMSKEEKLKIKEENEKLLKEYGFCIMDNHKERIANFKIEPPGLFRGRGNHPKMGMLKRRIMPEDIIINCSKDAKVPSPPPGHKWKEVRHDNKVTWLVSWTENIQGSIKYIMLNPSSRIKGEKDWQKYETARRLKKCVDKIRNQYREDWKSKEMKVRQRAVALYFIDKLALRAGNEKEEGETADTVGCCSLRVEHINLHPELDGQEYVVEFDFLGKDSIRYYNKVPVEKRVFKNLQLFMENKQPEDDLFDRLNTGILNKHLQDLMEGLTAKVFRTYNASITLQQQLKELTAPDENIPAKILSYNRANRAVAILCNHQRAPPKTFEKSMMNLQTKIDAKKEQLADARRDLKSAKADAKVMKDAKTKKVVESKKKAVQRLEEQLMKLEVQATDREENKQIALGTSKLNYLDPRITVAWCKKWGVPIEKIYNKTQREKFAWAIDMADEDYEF
Test: Inhibition of recombinant human topoisomerase 1 assessed as relaxation of supercoiled plasmid DNA pBR322 at 20 uM incubated for 30 mins by agarose gel electrophoresis
// reported inhibition per item
Just the number please, in %, no unit attached.

1. Cc1ccc2c(=O)[nH]c(-c3ccccc3OC(F)(F)F)nc2c1: 100
2. O=c1[nH]c(-c2cccc3ccccc23)nc2ccc(N3CCOCC3)cc12: 10.7
3. COc1cccc(-c2nc3ccc(N4CCCCC4)cc3c(=O)[nH]2)c1OC: 0
4. Cc1ccc2c(=O)[nH]c(-c3ccccc3N(C)C)nc2c1: 5.3

Quick note, inhibition for Cc1ccc2nc(-c3ccccc3C(F)(F)F)[nH]c(=O)c2c1 landed at 21.1

Quick note, inhibition for Cc1ccc2nc(-c3cccc(OC(F)(F)F)c3)[nH]c(=O)c2c1 landed at 0

Quick note, inhibition for CN(C)c1ccc2nc(-c3cccc4ccccc34)[nH]c(=O)c2c1 landed at 2.4

Quick note, inhibition for Cc1ccc2c(=O)[nH]c(-c3cccc(OC(F)(F)F)c3)nc2c1 landed at 0

Quick note, inhibition for CCN(CC)c1ccc2nc(-c3cccc4ccccc34)[nH]c(=O)c2c1 landed at 25.5

Quick note, inhibition for Cc1ccc2c(=O)[nH]c(-c3cccc(C(F)(F)F)c3)nc2c1 landed at 93.6

Quick note, inhibition for Cc1ccc2c(=O)[nH]c(-c3cccc4ccccc34)nc2c1 landed at 60.1

###

molecular target: DNA topoisomerase 1 (Homo sapiens) (UniProt P11387); assay: Inhibition of recombinant human topoisomerase 1 assessed as relaxation of supercoiled plasmid DNA pBR322 at 20 uM incubated for 30 mins by agarose gel electrophoresis
Measure Name: inhibition (%)
Just the number please, in %, no unit attached.

Record Cc1cccc(-c2nc3cc(C)ccc3c(=O)[nH]2)c1 has DNA topoisomerase 1 (Homo sapiens) (UniProt P11387) inhibition equal to 56.3
